# measurement-description: Plasma protein binding (equilibrium dialysis), serum 10% FCS in PBS
# Type: in vitro ADME
# measurement-context: bovine, 10% FCS in PBS (serum), read-out: PPB 10% FCS fu
For each of the compounds below, state its fraction unbound.
Returns: the value as a bare number; no unit string appended.

The reported fraction unbound of the compound C=CC(=O)N1CCN(c2cc(O[C@@H](C)[C@@H]3CCCN3C)nc(-c3cc(C4(C)CCCc5sc(N)c(C#N)c54)on3)n2)CC1 (stereo partly shown) [Ib-6] was 0.167

Record C=CC(=O)N1CCC(Oc2cc(O[C@@H](C)[C@@H]3CCCN3C)nc(-c3cc([C@@]4(C)CCCc5sc(N)c(C#N)c54)sn3)n2)CC1 [Id-6] . Reported fraction unbound: 0.521

The recorded fraction unbound for entry C=CC(=O)N1CCN(c2cc(O[C@@H](C)[C@@H]3CCCN3C)nc(-c3cc([C@@]4(C)CCCc5sc(N)c(C#N)c54)on3)n2)CC12CC2 [Ib-5] equals 0.058

Given item C=CC(=O)N1CCN(c2cc(O[C@@H](C)[C@@H]3CCCN3C)nc(-c3cc([C@@]4(C)CCCc5sc(N)c(C#N)c54)no3)n2)CC12CC2 [Ic-3] , the value recorded as its fraction unbound is 0.109
